I'd appreciate it if you could supply recombinant UMI read abundance (log10) values for the items below.
Experiment: recombinant UMI read abundance after kanamycin selection (control-corrected) (log10(CPM+1)); higher = more efficient recombination; extreme values may be limits of the assay; sequences stand for … in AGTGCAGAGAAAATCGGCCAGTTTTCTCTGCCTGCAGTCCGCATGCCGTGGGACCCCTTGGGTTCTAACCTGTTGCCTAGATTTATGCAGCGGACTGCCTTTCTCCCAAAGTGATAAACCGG…AGGTTGGTTTCACT; site = the 11-nt donor;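 also: IS621 bridge recombinase in Escherichia coli cells against a fixed T5 target plasmid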
One number for each entry.

[
  {
    "SEQ": "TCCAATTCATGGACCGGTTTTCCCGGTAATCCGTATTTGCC (site TCCCATTCTGG)",
    "NUMBER": 0
  },
  {
    "SEQ": "CGCTAGGCATGGACCGGTTTTCCCGGTAATCCGTATTTGGT (site GGCTAGGCTAC)",
    "NUMBER": 0.00627
  },
  {
    "SEQ": "CGGAGCACATGGACCGGTTTTCCCGGTAATCCGTATTTGCA (site CGGAGCACTTG)",
    "NUMBER": 2.66
  },
  {
    "SEQ": "CTAGTATCATGGACCGGTTTTCCCGGTAATCCGTATTTGAG (site CTAGTATCTAT)",
    "NUMBER": 2.35
  }
]

[ask] Query: recombinant UMI read abundance (log10); subject: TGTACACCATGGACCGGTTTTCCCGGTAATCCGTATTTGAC (site TGTCCACCTGT)
[reply] 0
